Recorded values, source PubChem BioAssay (NCI).

# Test system: SN12C renal
# METHOD NOTES: NCI-60 one-dose screen, 48 h
# MEASUREMENT CONDITIONS: 10 µM unless noted
Compounds without any hit were thinned out: in the full panel of roughly 83,000, 20% have a hit. Calls of active or inactive are those of the source. Rule for the calls: active = growth percent below 10; inactive = the rest.
Tick one outcome: yes = active, no = inactive

Solved cases (4 shown):
COMPOUND | MEASURED ON | ASSIGNED CLASS
Clc1nn2c(Cn3cnc4c(NCc5ccccc5)ncnc43)nnc2c2ccccc12 | SN12C renal | no
COc1cc(-c2nc3occn3c2-c2ccnc(NCCCNS(=O)(=O)c3ccccc3)n2)ccc1F | SN12C renal | no
CC(C)c1ccc(NC(=O)Nc2ccc(NC(=O)c3ccccc3N)cc2)cc1 | SN12C renal | no
NC(=O)c1c(NC(=O)c2ccc(Cl)cc2)sc2c1CCC(=O)C2 | SN12C renal | no

Q. For COC(=O)c1c2c(n3ccc(C)cc13)C(=O)c1ccccc1C2=O , what call appears in the results of this test?
A. no

Q. Recorded test outcome, item C=CCCC(=O)N1C=CC(=O)[C@H](O)[C@@H]1/C=C/c1ccccc1
A. no

Q. State the result this test recorded for Nc1c(C(=O)O)cc(Cl)cc1[N+](=O)[O-] .
A. no

Q. Record request — test call for CCn1cc(CNc2ccc(C(=O)Nc3cc4cc(OC)c(OC)cc4c(C)n3)cc2)c(C)n1
A. no

Q. Hello, I am checking results. What call was entered for c1ccc2cc(Cn3c[n+](Cc4ccc5ccccc5c4)c4ccccc43)ccc2c1 ?
A. yes
